# pIC50 annotations
system.tested: Mer (Homo sapiens, UniProt Q12866)
Sequence (Q12866 21-999): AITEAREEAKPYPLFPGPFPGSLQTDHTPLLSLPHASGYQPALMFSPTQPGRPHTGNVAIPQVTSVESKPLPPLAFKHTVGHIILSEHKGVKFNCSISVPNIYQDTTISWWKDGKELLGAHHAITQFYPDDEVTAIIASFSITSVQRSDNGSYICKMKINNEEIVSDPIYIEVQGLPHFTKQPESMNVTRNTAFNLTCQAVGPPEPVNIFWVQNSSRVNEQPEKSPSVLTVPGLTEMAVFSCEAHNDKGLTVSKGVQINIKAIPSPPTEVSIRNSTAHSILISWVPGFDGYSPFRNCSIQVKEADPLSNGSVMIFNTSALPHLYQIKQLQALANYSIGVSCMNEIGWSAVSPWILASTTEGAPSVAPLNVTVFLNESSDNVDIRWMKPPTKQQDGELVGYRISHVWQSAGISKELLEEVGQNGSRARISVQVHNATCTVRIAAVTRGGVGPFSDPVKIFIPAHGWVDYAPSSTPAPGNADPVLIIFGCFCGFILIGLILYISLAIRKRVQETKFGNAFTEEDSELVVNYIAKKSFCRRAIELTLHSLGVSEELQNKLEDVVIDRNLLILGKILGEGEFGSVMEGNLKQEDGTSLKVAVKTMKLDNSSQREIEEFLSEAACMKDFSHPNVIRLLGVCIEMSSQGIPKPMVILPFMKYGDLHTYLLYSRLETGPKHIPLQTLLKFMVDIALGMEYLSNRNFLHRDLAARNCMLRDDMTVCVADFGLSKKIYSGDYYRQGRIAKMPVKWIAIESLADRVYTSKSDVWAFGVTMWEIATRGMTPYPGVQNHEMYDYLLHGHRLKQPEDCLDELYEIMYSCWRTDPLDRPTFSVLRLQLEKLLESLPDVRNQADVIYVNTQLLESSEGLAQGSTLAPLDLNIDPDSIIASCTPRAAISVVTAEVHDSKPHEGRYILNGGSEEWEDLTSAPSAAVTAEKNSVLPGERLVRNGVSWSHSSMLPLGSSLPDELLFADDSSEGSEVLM
test.description: Mer autophosphorylation ELISA in transient transfected 293A cells
condition.context: Table 3 Cellular Activities; MERTK-transfected 293A cells, phospho-Mer ELISA
pIC50: −log10 of the molar value.

CCOc1ccn(-c2ccc(F)cn2)c(=O)c1C(=O)Nc1ccc(Oc2ccnc3cc(OC)c(OC)nc23)cc1 : ≥ 7.00
COc1cc2nccc(Oc3ccc(NC(=O)c4cnc(C)c(-c5ccnn5C)c4O)cc3F)c2nc1OC : ≥ 7.00

Record summary for "CCOCCOCCOc1cc(-n2c(C)ccc(C(=O)Nc3ccc(Oc4ccnc5cc(OC)c(OC)nc45)c(F)c3)c2=O)ccn1" : reported pIC50 = ≥ 7.00

Record summary for "COc1cc2nccc(Oc3ccc(NC(=O)c4c(C)nc(C)c(-c5ccc(C)o5)c4O)cc3F)c2nc1OC" : reported pIC50 = ≥ 7.00

Record summary for "COc1cc2nccc(Oc3ccc(NC(=O)c4cnc(C)c(-c5cncs5)c4O)cc3F)c2nc1OC" : reported pIC50 = ≥ 7.00

* * *

system.tested: KDR (Homo sapiens, UniProt P35968)
Sequence (P35968 20-1356): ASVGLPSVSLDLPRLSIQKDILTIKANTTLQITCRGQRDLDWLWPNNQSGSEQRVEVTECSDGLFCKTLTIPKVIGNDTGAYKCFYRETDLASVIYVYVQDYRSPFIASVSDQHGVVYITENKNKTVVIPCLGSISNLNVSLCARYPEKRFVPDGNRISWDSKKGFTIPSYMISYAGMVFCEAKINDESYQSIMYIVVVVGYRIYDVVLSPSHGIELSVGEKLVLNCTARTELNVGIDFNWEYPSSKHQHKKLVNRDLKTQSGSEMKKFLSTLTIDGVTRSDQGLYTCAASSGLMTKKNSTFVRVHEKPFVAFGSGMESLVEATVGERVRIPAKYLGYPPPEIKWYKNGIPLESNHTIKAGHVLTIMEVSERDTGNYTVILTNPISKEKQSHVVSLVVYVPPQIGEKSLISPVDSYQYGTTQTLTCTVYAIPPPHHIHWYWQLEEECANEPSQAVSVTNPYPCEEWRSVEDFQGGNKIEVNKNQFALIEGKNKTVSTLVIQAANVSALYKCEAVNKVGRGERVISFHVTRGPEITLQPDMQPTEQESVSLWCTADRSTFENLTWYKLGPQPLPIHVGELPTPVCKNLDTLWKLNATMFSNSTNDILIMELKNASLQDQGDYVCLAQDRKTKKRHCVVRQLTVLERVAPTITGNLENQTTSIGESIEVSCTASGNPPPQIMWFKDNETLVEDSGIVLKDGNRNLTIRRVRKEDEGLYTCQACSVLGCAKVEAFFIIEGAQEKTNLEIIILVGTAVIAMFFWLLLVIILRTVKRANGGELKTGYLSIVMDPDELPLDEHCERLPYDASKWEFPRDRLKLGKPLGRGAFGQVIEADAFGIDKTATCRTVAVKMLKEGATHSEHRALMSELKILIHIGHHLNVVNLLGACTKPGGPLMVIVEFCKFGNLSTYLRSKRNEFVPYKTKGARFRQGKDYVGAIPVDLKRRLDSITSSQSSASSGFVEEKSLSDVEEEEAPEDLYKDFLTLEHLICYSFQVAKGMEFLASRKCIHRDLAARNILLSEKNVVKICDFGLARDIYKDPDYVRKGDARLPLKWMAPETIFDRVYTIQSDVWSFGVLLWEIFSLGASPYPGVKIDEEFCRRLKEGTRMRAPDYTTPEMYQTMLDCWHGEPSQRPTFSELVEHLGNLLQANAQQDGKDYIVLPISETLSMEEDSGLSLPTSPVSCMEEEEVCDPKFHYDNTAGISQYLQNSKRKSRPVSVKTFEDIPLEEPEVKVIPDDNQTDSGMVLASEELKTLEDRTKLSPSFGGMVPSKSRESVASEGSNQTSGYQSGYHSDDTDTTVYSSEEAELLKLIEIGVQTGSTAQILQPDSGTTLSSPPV
test.description: KDR autophosphorylation ELISA in HUVEC cells
Assay type: cell-based
Set-up: endogenous in cells; host or cells: HUVEC (Lonza #C2519A)
condition.context: Table 3 Cellular Activities, VEGF165-stimulated, phospho-KDR ELISA
# IC50 annotations

Some entries whose results are on file:
COc1cc2nccc(Oc3cc(F)c(NC(=O)c4c(C)n(C)c(C)c(-c5ccco5)c4=O)cc3F)c2nc1OC : 300 to 1000 nM
COc1cc2nccc(Oc3ccc(NC(=O)c4cc(C(C)=O)c(C)n(-c5ccc(F)cn5)c4=O)cc3F)c2nc1OC : 100 to 300 nM
CCc1c(C(=O)Nc2ccc(Oc3ccnc4cc(OCCOC)c(OC)nc34)c(F)c2)c(=O)c(-c2ccco2)c(C)n1C : ≤ 100 nM

Shift focus to the following entry.
Record summary for "COc1cc2nccc(Oc3ccc(NC(=O)c4c5n(cc(-c6ccc(C)s6)c4=O)CCOC5)cc3F)c2nc1OC" : reported IC50 = 300 to 1000 nM

* * *

# pIC50 annotations
system.tested: KDR (Homo sapiens, UniProt P35968)
test.description: KDR autophosphorylation ELISA in HUVEC cells
Type: cell-based
Design: endogenous in cells; host or cells: HUVEC (Lonza #C2519A)
condition.context: Table 3 Cellular Activities, VEGF165-stimulated, phospho-KDR ELISA
pIC50: −log10 of the molar value.

Some entries whose results are on file:
COc1cc2nccc(Oc3ccc(NC(=O)c4c(C)ncc(-c5ccccn5)c4O)cc3F)c2nc1OC : ≥ 7.00
COc1cc2nccc(Oc3ccc(NC(=O)c4c(C)n(CC(F)F)cc(-c5ccco5)c4=O)cc3F)c2nc1OC : 6.00 to 6.52
COc1cc2nccc(Oc3ccc(NC(=O)c4c(C)ncc(-c5ccc(C)o5)c4O)cc3F)c2nc1OC : ≥ 7.00
COc1cc2nccc(Oc3ccc(NC(=O)c4c(C)n(C)cc(-c5ccc(F)cn5)c4=O)cc3F)c2nc1OC : 6.00 to 6.52
COc1cc2nccc(Oc3ccc(NC(=O)c4c(C)nc(C)c(-c5ccc(C6CC6)o5)c4O)cc3F)c2nc1OC [Compound 155B] : ≥ 7.00

Shift focus to the following entry.
Record summary for "COc1cc2nccc(Oc3ccc(NC(=O)c4ccc(C)n(-c5ncc(F)cc5C)c4=O)cc3F)c2nc1OC" : reported pIC50 = ≥ 7.00
